Experiment: TIMS collisional cross section (CCS, N2) of the lipid ion; higher = larger ion cross section
Details: sample type: HeLa; ionization mode: positive; one isomer drawn
Catalogue of TIMS collisional cross section readings, one per entry.
MEASURE: TIMS collisional cross section (Å²)

[
  {
    "COMPOUND": "CCCCCC/C=C\\CCCCCCCC(=O)O[C@@H](COC(=O)CCCCCCC/C=C\\CCCCCCCC)COC(=O)CCCCCCCCCCCCCC [TG 15:0_16:1_18:1] (ion (formula + adduct): [C52H96O6+NH4] 1+)",
    "VALUE_REPORTED": 312.9
  },
  {
    "COMPOUND": "CCCCCCC/C=C\\CCCCCCCC(=O)OC[C@@H](COC(=O)CCCCCCCCCCCCC)OC(=O)CCCCCCCCCCCCCCC [TG 14:0_16:0_17:1] (ion (formula + adduct): [C50H94O6+NH4] 1+)",
    "VALUE_REPORTED": 309.1
  },
  {
    "COMPOUND": "CC/C=C\\C/C=C\\C/C=C\\C/C=C\\C/C=C\\CCCC(=O)O[C@@H](CO)COC(=O)CCCCCCCCCCCCCCC [DG 16:0_20:5_0:0] (ion (formula + adduct): [C39H66O5+NH4] 1+)",
    "VALUE_REPORTED": 261.5
  },
  {
    "COMPOUND": "CCCC/C=C\\CCCCCCCC(=O)OC[C@H](COC(=O)CCCCCCC/C=C\\CCCCCC)OC(=O)CCCCCCC/C=C\\CCCCC [TG 14:1_15:1_16:1] (ion (formula + adduct): [C48H86O6+NH4] 1+)",
    "VALUE_REPORTED": 298.2
  },
  {
    "COMPOUND": "CC/C=C\\C/C=C\\C/C=C\\C/C=C\\C/C=C\\CCCCCC(=O)OC[C@@H](COC(=O)CCCCCCCCCCCCCCC)OC(=O)CCCCCCCCCCCCCCCCC [TG 16:0_18:0_22:5] (ion (formula + adduct): [C59H104O6+NH4] 1+)",
    "VALUE_REPORTED": 330.6
  },
  {
    "COMPOUND": "CCCCC/C=C\\C/C=C\\C/C=C\\C/C=C\\C/C=C\\CCC(=O)O[C@H](COCCCCCCCCCCCCCCCCCC)COP(=O)([O-])OCC[N+](C)(C)C [PC O- 18:0@_22:5] (ion (formula + adduct): [C48H88NO7P+H] 1+)",
    "VALUE_REPORTED": 300.2
  },
  {
    "COMPOUND": "CCCCC/C=C\\C/C=C\\C/C=C\\CCCCCCC(=O)O[C@@H](CO)COC(=O)CCCCCCCCCCCCCCC [DG 16:0_20:3_0:0] (ion (formula + adduct): [C39H70O5+NH4] 1+)",
    "VALUE_REPORTED": 264.8
  },
  {
    "COMPOUND": "CCCCC/C=C\\C/C=C\\C/C=C\\CCCCCCCCC(=O)OC[C@@H](COC(=O)CCCCCCC/C=C\\CCCCCCC)OC(=O)CCCCCCC/C=C\\CCCCCCCC [TG 17:1_18:1_22:3] (ion (formula + adduct): [C60H106O6+NH4] 1+)",
    "VALUE_REPORTED": 332
  },
  {
    "COMPOUND": "CCCCCCCC/C=C\\CCCCCCCC(=O)OC[C@H](COC(=O)CCCCCCCCCCCCCCCCCCCCC)OC(=O)CCCCCCCCCCCCCCCCCCC [TG 18:1_20:0_22:0] (ion (formula + adduct): [C63H120O6+NH4] 1+)",
    "VALUE_REPORTED": 346.3
  }
]
